- Test system: TK-10 renal
- ASSAY_COMMENT: NCI tumour cell line growth inhibition, 48 h; in the data active means GI50 below about 0.43 µM; inactive means the rest
API: response.call in active, inactive

Field: example entries. Status: answers known.
COMPOUND: O=C(Nc1ccc(Cl)cc1F)c1cc(I)ccc1O
CLASSIFICATION: inactive
//
COMPOUND: CC[C@H](Nc1nc(N)nc(C)c1C#N)c1nc2cccc(NCc3ccc(C(=O)NO)cc3)c2c(=O)n1-c1ccccc1
CLASSIFICATION: inactive
//
COMPOUND: Cc1noc(C)c1-c1cc(O)cc(C(O)c2ccccc2)c1 (stereo unspecified)
CLASSIFICATION: inactive
//
COMPOUND: CN(C)CCOc1ccc(/C(=C(/CCCl)c2ccccc2)c2ccccc2)cc1
CLASSIFICATION: inactive
//
COMPOUND: CN(C)c1ncnc2c1nnn2C1OC(CO)C(O)C1O (stereo unspecified)
CLASSIFICATION: active
//
COMPOUND: O=c1cc(N2CCNCC2)oc2c(-c3ccccc3)cccc12
CLASSIFICATION: inactive

How did this test come out for O=C1c2ccccc2C(=Cc2ccccc2)c2ccccc21 ?
inactive

Hi, do you know how CCOC(=O)C1=C(C)NC2SC(=O)/C(=C\c3ccccc3O)N2C1c1ccccc1 (stereo unspecified) came out in this test?
inactive

What is the recorded call for this compound in the test? COc1ccc2c(c1)C(=O)C(=O)c1cc(O)c(OC)c(OC)c1-2
inactive

Please indicate how the test categorized COc1ccc2c(c1)C(=O)c1c-2c(Nc2ccc(C(C)=O)cc2)nc2ccccc12 .
inactive

Record request — test call for CN1CCN(Cc2ccc(NC(=O)c3cncc(C#Cc4cncc5ncccc45)c3)cc2C(F)(F)F)CC1
inactive

Query: recorded result category for Oc1ccc(O)c(-c2cc(-c3ccccc3)nn2-c2ccccc2)c1 in this test
inactive

What was the test verdict on COc1cccc2c1-c1c(c3ccc([N+](=O)[O-])cc3c(=O)n1CCCCl)C2=O ?
inactive

What classification did CCCC[N+](CCCC)=c1ccc2nc3c(C)cc(N(CC)CC)cc3sc-2c1 end up with in this test?
active

Fill in: this test's call for CC(C)(C#N)c1cc(F)cc(C(=O)Nc2cc(Nc3ncccc3-c3ncnc4nc[nH]c34)ccc2F)c1 is ___
inactive

Returns: the outcome recorded for COc1cc2nccc(Oc3ccc(NC(=O)C4(C(=O)Nc5ccc(F)cc5)CC4)cc3)c2cc1Oc1ccc(N)cn1 in this assay.
inactive

====

- Test system: COLO 205 colon
- ASSAY_COMMENT: NCI tumour cell line growth inhibition, 48 h
METRIC: TGI

COMPOUND: O=C1c2ccccc2C(=Cc2ccccc2)c2ccccc21
TGI: 5.14 µM

Take each entry in turn and give its TGI.
1. CC(O)C(N=Cc1nc(-c2ccccc2)oc1O)C(=O)O (stereo unspecified)
2. CCC1CN2CCC1CC2 (stereo unspecified)
3. CN=C(NC#N)NCCSCc1nc[nH]c1C
4. COC(=O)[C@H]1C[C@H]1NC(=O)C(CC(=O)OCc1ccccc1)NC(=O)OCc1ccccc1 (stereo partly specified)
5. CC1(C)OC(C[C@]2(C#N)C[C@H](CCl)OC(C)(C)O2)C[C@@H](C[C@]2(C#N)C[C@H](CCl)OC(C)(C)O2)O1 (stereo partly specified)
6. Nc1nncc2c1ccn2C1OC(CO)C(O)C1O (stereo unspecified)
7. CCN1C(=O)NC(=O)C(C)(N2C(=O)c3c(F)c(F)c(F)c(F)c3C2=O)C1=O (stereo unspecified)
8. Cc1cc(C2=NNC(=O)Cc3cc4c(cc32)OCCO4)cc(C)c1N

1: > 100 µM; 2: > 100 µM; 3: > 100 µM; 4: 43.2 µM; 5: > 100 µM; 6: > 100 µM; 7: 4.47 µM; 8: 11.2 µM

====

- Test system: SF-539 CNS
- ASSAY_COMMENT: NCI tumour cell line growth inhibition, 48 h
METRIC: TGI

Take a look at these entries with their results.
COMPOUND: CCCc1c[nH]c(-c2ccc(-c3cc(CCC)c(C=O)[nH]3)s2)c1
TGI: 32.8 µM

COMPOUND: COc1cc(=O)n2c3ccccc3n(C)c2c1C#N
TGI: > 100 µM

// each listed compound needs a value for TGI
1. O=C1C(C(c2ccccc2)N2CCOCC2)=C(O)C(c2ccccc2)N1c1ccccc1 (stereo unspecified)
2. O=C1C2=Nc3ccccc3C(O)N2c2ccccc21 (stereo unspecified)
3. Nc1ccc(N=Nc2ccc(-c3ccc(O)cc3)cc2)c2ccc(S(=O)(=O)O)cc12
4. NNC(=S)N/N=C(/C(=O)Nc1cc(Cl)ccc1Cl)C1C(=O)Nc2ccccc2S1=O (stereo unspecified)
5. CCOC(=O)CC1(O)CCCCC1(Sc1ccc(C)cc1)Sc1ccc(C)cc1 (stereo unspecified)

1: > 10 µM; 2: > 100 µM; 3: > 100 µM; 4: > 100 µM; 5: > 100 µM

Consider the following items and state reported TGI for each.
1. CC(Oc1ccc(OCC2CCCCC2)cc1)C(N)=O (stereo unspecified)
2. O=C(O)CCC(=O)c1ccc2ccc3cccc4ccc1c2c34
3. Cc1cccc2c(N)c3cccc(C(=O)NCC[N+](C)(C)Cc4sccc4[N+](=O)[O-])c3nc12

> 100 µM
68 µM
14.4 µM

Entry CCCCCC(=O)Nc1nc[nH]c1C(N)=O ; TGI = > 100 µM

====

- System: OVCAR-8 ovarian
- ASSAY_COMMENT: NCI tumour cell line growth inhibition, 48 h
For each entry below, report its TGI value.

CHEM_SMILES: O=[N+]([O-])c1ccc2c(N3CCC(CCCC4CCN(c5ncnc6cc([N+](=O)[O-])ccc56)CC4)CC3)ncnc2c1
METRIC: TGI
VALUE: > 100 µM
//
CHEM_SMILES: Cc1n[nH]c(=O)n1/N=C/c1cccs1
METRIC: TGI
VALUE: > 100 µM
//
CHEM_SMILES: Cc1ccc2nc(-c3ccc(-n4c(C)nc(=O)c(-c5ccc(F)cc5)c4C)cc3)sc2c1
METRIC: TGI
VALUE: 42.9 µM
//
CHEM_SMILES: CC(=O)C1=C(C)Cn2c(=O)c3ccccc3c(=O)n2C1
METRIC: TGI
VALUE: > 100 µM
//
CHEM_SMILES: O=C1c2ccccc2C(=O)c2c(NCCNCCO)ccc(O)c21
METRIC: TGI
VALUE: 13.5 µM

// moving on: another record for TGI
Lab note: measured TGI of COC(=O)c1ccc(NC(=O)Nc2ccc3oc(=O)c4ccccc4c3c2)cc1 was > 100 µM

====

- Tested on: 786-0 renal
- ASSAY_COMMENT: NCI tumour cell line growth inhibition, 48 h
METRIC: GI50

Consider the worked cases shown below.
CHEM_SMILES: CC1CCN(CCCCCOc2ccc3oc4cc(Cl)ccc4c(=O)c3c2)CC1
GI50: 6.29 µM

CHEM_SMILES: O=C(c1ccco1)c1nc2cc(F)ccc2[n+]([O-])c1C(F)(F)F
GI50: 53.2 µM

CHEM_SMILES: CN(C)c1ccc(/C=C(\C#N)c2nc3ccccc3n2C)cc1
GI50: 8.77 µM

Next up:
Recorded GI50 (compound Oc1ccc(O)c(-c2cc(-c3ccccc3)nn2-c2ccccc2)c1 ): 12.2 µM

====

- Test system: T-47D breast
- ASSAY_COMMENT: NCI tumour cell line growth inhibition, 48 h
Can you tell me GI50 for the items I'm about to list?

Record excerpt, results attached:
CHEM_SMILES: COc1ccc(-c2nn(-c3cccc(NC(=O)c4ccc5c(c4)OCCO5)c3)cc2-c2ccncc2)cc1Cl
METRIC: GI50
VALUE: 2960 nM
//
CHEM_SMILES: O=[N+]([O-])c1ccc2c(N3CCC(CCCC4CCN(c5ncnc6cc([N+](=O)[O-])ccc56)CC4)CC3)ncnc2c1
METRIC: GI50
VALUE: 454 nM
//
CHEM_SMILES: O=C(CF)N(O)c1ccc(/C=C/c2ccccc2)cc1
METRIC: GI50
VALUE: 1060 nM

So, Cn1c(O)c(C(/C=C/c2ccccc2)=NCCN=C(/C=C/c2ccccc2)c2c(O)n(C)c(=O)n(C)c2=O)c(=O)n(C)c1=O ? Its GI50 was 16100 nM

====

- Test system: PC-3 prostate
- ASSAY_COMMENT: NCI tumour cell line growth inhibition, 48 h
Answer each item with its documented TGI.

Recorded TGI, per entry:
COMPOUND: O=C1C2=Nc3ccccc3C(O)N2c2ccccc21 (stereo unspecified)
ASSAY_TARGET: PC-3 prostate
TGI: > 100 µM

COMPOUND: Oc1ccc(O)c(-c2cc(-c3ccccc3)nn2-c2ccccc2)c1
ASSAY_TARGET: PC-3 prostate
TGI: > 100 µM

COMPOUND: Cc1ccc(/C(=C\C(=O)C(=O)NC23CC4CC(CC(C4)C2)C3)Sc2ccccc2)cc1
ASSAY_TARGET: PC-3 prostate
TGI: > 10 µM

Need TGI for each of these compounds.
1. C/C(=N\Oc1cc(Cl)ncn1)c1ccccn1
2. Nc1ccc(N=Nc2ccc(-c3ccc(O)cc3)cc2)c2ccc(S(=O)(=O)O)cc12
3. C=CCCCC1SC2=C(CC)CCCN2C1=O (stereo unspecified)
4. Cn1cc(-c2cnc(-c3cn(C)c4ccccc34)cn2)c2ccccc21
5. COC1CCC(O)C(/C=C/[N+](=O)[O-])C1 (stereo unspecified)
6. O=C1C(C(c2ccccc2)N2CCOCC2)=C(O)C(c2ccccc2)N1c1ccccc1 (stereo unspecified)

1. > 100 µM
2. > 100 µM
3. > 100 µM
4. > 100 µM
5. 6.01 µM
6. > 10 µM

# batch size: 5; output TGI per entry
1. NC(N)=NC(P(=O)(O)O)P(=O)(O)O
2. CCOc1cc2c(cc1O)/C(=N\O)C[C@@H]1[C@@H]2CC[C@]2(C)[C@@H](O)CC[C@@H]12
3. O=C(CN1CCN(c2ccc(Cl)cc2)CC1)N1CCN(c2nnc(-c3ccc(Cl)cc3)c(-c3ccc(Cl)cc3)n2)CC1
4. COc1ccc2c(c1)C(=O)c1c-2c(Nc2ccc(C(C)=O)cc2)nc2ccccc12
5. CC/C=C\C/C=C\C[C@H](O)C/C=C1/C(=O)C=C[C@@H]1C/C=C\CCCC(=O)O

1: > 100 µM; 2: > 100 µM; 3: > 100 µM; 4: > 100 µM; 5: 21.5 µM

Give me TGI for each of these compounds, listed below.
1. O=C1c2ccccc2C(=O)c2c1ccc1nc3c(nc21)-c1c2ccccc2cc2cccc-3c12
2. CCOC(=O)CC1(O)CCCCC1(Sc1ccc(C)cc1)Sc1ccc(C)cc1 (stereo unspecified)
3. CCN1C(NN)=NS(=O)(=O)c2ccccc21
4. O=C(CF)N(O)c1ccc(/C=C/c2ccccc2)cc1

> 100 µM
> 100 µM
> 100 µM
> 100 µM
